Parameter: inhibition. Scope: all listed entries.
subject-of-test: 5'-AMP-activated protein kinase catalytic subunit alpha-2 (Homo sapiens)
measurement-setup: at 1 µM
Description: GSK_PKIS: AMPKA2 (A2B1G1) mean inhibition at 1 uM [Nanosyn]
parameter: inhibition (%)

compound=COc1cc2ncn(-c3cc(OCc4cccs4)c(C(N)=O)s3)c2cc1OC reading_unit=% recorded_measurement=5.5
compound=O=C(Nc1n[nH]c2cc(-c3ccccc3)ccc12)C1CC1 reading_unit=% recorded_measurement=7.53
compound=CN(C)c1ccc2c(c1)/C(=C/Nc1ccc(S(N)(=O)=O)cc1)C(=O)N2 reading_unit=% recorded_measurement=26.8
compound=COC(=O)Nc1nc2ccc(Sc3ccc(NC(=O)Nc4cc(C(F)(F)F)ccc4F)cc3)cc2[nH]1 reading_unit=% recorded_measurement=1.29
compound=COc1cc(C)c(N(C)C(=O)CN(C)C)cc1Nc1nc(Nc2cccc(F)c2C(N)=O)c2cc[nH]c2n1 reading_unit=% recorded_measurement=3.07
compound=Cc1ccc(C(=O)NC2CCC2)cc1-c1ccc(C(=O)NCC2CC2)cc1 reading_unit=% recorded_measurement=0.57
compound=COc1cc(Nc2ncc(-c3ccccc3)o2)cc(OC)c1OC reading_unit=% recorded_measurement=5.35
compound=COc1ccc2ncn(-c3cc(O[C@H](C)c4ccccc4Cl)c(C(N)=O)s3)c2c1 reading_unit=% recorded_measurement=1.17
compound=COc1cccc(-n2cnc3c(N/N=C/c4ccncc4)ncnc32)c1 reading_unit=% recorded_measurement=1.47
compound=c1ccc(Oc2ccc(Nc3ncc(-c4ccccc4)o3)cc2)cc1 reading_unit=% recorded_measurement=2.49
compound=COc1cc2ncn(-c3cc(OCCc4ccccc4)c(C(N)=O)s3)c2cc1OC reading_unit=% recorded_measurement=1.32
compound=CN(c1ccc(NC(=O)Nc2c(Cl)cccc2Cl)cc1)c1ccnc(Nc2cccc(CS(C)(=O)=O)c2)n1 reading_unit=% recorded_measurement=3.21
compound=NC(=O)c1cc(-c2ccc(F)cc2)cc(-c2ccncc2)c1N reading_unit=% recorded_measurement=2.48
compound=CCS(=O)(=O)c1ccc(OC)c(Nc2ncc(-c3ccccc3Cl)o2)c1 reading_unit=% recorded_measurement=2.95
compound=CCS(=O)(=O)c1ccc(OC)c(Nc2ncc(-c3cccc(-c4ccccc4F)c3)o2)c1 reading_unit=% recorded_measurement=1.37
compound=Fc1ccc(-c2ncn(C3CCNCC3)c2-c2ccnc(Oc3ccc(F)c(F)c3)n2)cc1 reading_unit=% recorded_measurement=4.77
compound=NS(=O)(=O)c1ccc(Nc2cc(-c3ccc(O)c(F)c3)n[nH]2)cc1 reading_unit=% recorded_measurement=8.67
compound=O=C1Nc2ccccc2/C1=C/Nc1ccc(-n2cncn2)cc1 reading_unit=% recorded_measurement=15.5
compound=COc1cc2ncn(-c3cc(OCc4ccccc4C(F)(F)F)c(C(C)=O)s3)c2cc1OC reading_unit=% recorded_measurement=2.21
compound="Nc1nccc(-c2c(-c3ccc(F)cc3)ncn2C2CCC(O)CC2)n1 (configuration not stated)" reading_unit=% recorded_measurement=-1.6
compound=Fc1ccc(-c2nc3n(c2-c2ccncc2)CCS3)cc1 reading_unit=% recorded_measurement=5.23
compound=Cc1nnc(-c2ccc(C)c(-c3ccc(C(=O)NCc4ccc(Cl)cc4)cc3)c2)o1 reading_unit=% recorded_measurement=3.56
compound=O=C(Nc1ccc(Oc2ccc3[nH]c(NC(=O)c4ccccc4)nc3c2)cc1)Nc1cc(C(F)(F)F)ccc1F reading_unit=% recorded_measurement=4.55
compound=CCc1ccc(Oc2nccc(-c3c(-c4ccc(F)cc4)ncn3C3CCNCC3)n2)cc1 reading_unit=% recorded_measurement=7.27
compound=N#Cc1ccc(Oc2nccc(-c3c(-c4ccc(F)cc4)ncn3C3CCNCC3)n2)cc1 reading_unit=% recorded_measurement=3.23
compound=COc1cc(N2CCN(C(C)C)CC2)ccc1Nc1nc(Nc2ccc(F)cc2C(=O)NC[C@@H](O)CO)c2cc[nH]c2n1 reading_unit=% recorded_measurement=3.64
compound=CCC(=O)Nc1ccc(C)c(-c2ccc(C(=O)NCC3CC3)cc2)c1 reading_unit=% recorded_measurement=2.49
compound=FC(F)(F)c1cccc(Nc2nccc(-c3cnn4nc(-c5ccccc5)ccc34)n2)c1 reading_unit=% recorded_measurement=2.89
compound=COc1cccc(/C=N/Nc2ncnc3c2cnn3-c2cccc(OC)c2)c1 reading_unit=% recorded_measurement=2.83
compound=O=C(Nc1n[nH]c2cc(-c3cc(F)ccc3F)ccc12)C1CC1 reading_unit=% recorded_measurement=9.82
compound=Fc1ccc(-c2ncn(CCCN3CCOCC3)c2-c2ccncc2)cc1 reading_unit=% recorded_measurement=2.58
compound=Cc1ccc(C(=O)NC(C)C)cc1-c1ccc(C(=O)NCC2CC2)cc1 reading_unit=% recorded_measurement=-5.48
compound=Clc1ccc(CNc2nccc(-c3cnn4ncccc34)n2)cc1 reading_unit=% recorded_measurement=0.84
compound=CNC(=O)c1cncc(/C=C/c2c(C)cccc2C)c1 reading_unit=% recorded_measurement=0.33
compound=CCc1nccc2c1nc(-c1nonc1N)n2CC reading_unit=% recorded_measurement=2
compound=COc1ccc(C2=C(N3CCc4ccccc43)C(=O)NC2=O)cc1 reading_unit=% recorded_measurement=5.49
compound=O=C1Nc2ccc(I)cc2C1=Cc1cc(Br)c(O)c(Br)c1 reading_unit=% recorded_measurement=3.18
compound=COc1cc(Nc2ncc3c(C)nc(-c4cccc(C(F)(F)F)c4)n3n2)cc(OC)c1OC reading_unit=% recorded_measurement=25
compound=C[C@@H](Oc1cc(-n2cnc3ccc(OC4CCN(C)CC4)cc32)sc1C(N)=O)c1ccccc1Cl reading_unit=% recorded_measurement=9.02
compound=Fc1ccc(-c2ncn(C3CCNCC3)c2-c2ccnc(Oc3ccc(Oc4ccccc4)cc3)n2)cc1 reading_unit=% recorded_measurement=3.68
compound=O=C(NCC1CC1)c1ccc(-c2cccc(C(=O)NC3CC3)c2)cc1 reading_unit=% recorded_measurement=1.74
compound=CCc1cccc(CC)c1/C=C/c1cncc(C(=O)NC)c1 reading_unit=% recorded_measurement=2.36

* * *

subject-of-test: Calcium/calmodulin-dependent protein kinase type II subunit delta (Homo sapiens) (UniProt Q13557)
Sequence (Q13557 whole entry): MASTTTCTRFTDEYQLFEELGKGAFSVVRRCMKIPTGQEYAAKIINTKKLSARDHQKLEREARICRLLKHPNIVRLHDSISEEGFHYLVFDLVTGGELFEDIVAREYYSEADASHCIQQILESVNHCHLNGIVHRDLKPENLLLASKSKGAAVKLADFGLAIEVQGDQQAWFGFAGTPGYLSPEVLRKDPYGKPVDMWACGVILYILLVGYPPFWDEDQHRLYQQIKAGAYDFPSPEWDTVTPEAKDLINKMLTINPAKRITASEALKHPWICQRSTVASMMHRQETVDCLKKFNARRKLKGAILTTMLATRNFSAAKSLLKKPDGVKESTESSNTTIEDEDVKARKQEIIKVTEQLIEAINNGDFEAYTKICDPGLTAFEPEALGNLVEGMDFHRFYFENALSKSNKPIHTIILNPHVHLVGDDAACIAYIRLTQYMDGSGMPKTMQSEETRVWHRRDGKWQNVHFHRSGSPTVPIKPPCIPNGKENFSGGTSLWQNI
measurement-setup: at 0.1 µM
Each entry below carries its reported inhibition.
parameter: inhibition

substance_smiles=COC(=O)Nc1nc2ccc(Sc3ccc(NC(=O)Nc4cc(C(F)(F)F)ccc4F)cc3)cc2[nH]1 parameter=inhibition recorded_measurement=1.39%
substance_smiles=Fc1ccc(-c2nc3n(c2-c2ccncc2)CCS3)cc1 parameter=inhibition recorded_measurement=4.18%
substance_smiles=NC(=O)c1cc(-c2ccncc2)cc(-c2ccccc2)c1N parameter=inhibition recorded_measurement=4.41%
substance_smiles=COc1cc(Nc2ncc3c(C)nc(-c4cccc(C(F)(F)F)c4)n3n2)cc(OC)c1OC parameter=inhibition recorded_measurement=3.19%
substance_smiles=NC(=O)Cc1ccccc1Oc1nccc(-c2c(-c3ccc(F)cc3)ncn2C2CCNCC2)n1 parameter=inhibition recorded_measurement=2.62%
substance_smiles=CCc1nccc2c1nc(-c1nonc1N)n2CC parameter=inhibition recorded_measurement=2%
substance_smiles=CNC(=O)c1cncc(/C=C/c2c(C)cccc2C)c1 parameter=inhibition recorded_measurement=1.04%
substance_smiles=Cc1ccc(C(=O)NC2CCC2)cc1-c1ccc(C(=O)NCC2CC2)cc1 parameter=inhibition recorded_measurement=1.89%
substance_smiles=NCc1ccc(-n2c(-c3nonc3N)nc3cnccc32)cc1 parameter=inhibition recorded_measurement=6.42%

* * *

subject-of-test: Protein-tyrosine kinase 6 (Homo sapiens)
measurement-setup: at 0.1 µM
Description: GSK_PKIS: BRK mean inhibition at 0.1 uM [Nanosyn]
Returns one of met or not met; met when inhibition is >= 2%.

substance_smiles=CN(C)CCCNc1nccc(-c2c(-c3ccc(F)cc3)nn3cc(C(F)(F)F)ccc23)n1 answer_label=met
substance_smiles=O=C(Nc1n[nH]c2cc(-c3cc(F)ccc3F)ccc12)C1CC1 answer_label="not met"
substance_smiles=Cc1ccc(NC(=O)c2ccoc2)cc1-c1ccc(C(=O)NCC2CC2)cc1 answer_label="not met"
substance_smiles=COc1cc(C)c(N(C)C(=O)CN(C)C)cc1Nc1nc(Nc2cccc(F)c2C(N)=O)c2cc[nH]c2n1 answer_label="not met"
substance_smiles=CNC(=O)c1cncc(/C=C/c2c(C)cccc2C)c1 answer_label=met
substance_smiles=CCS(=O)(=O)c1ccc(OC)c(Nc2ncc(-c3cccc(-c4ccccc4F)c3)o2)c1 answer_label="not met"

* * *

subject-of-test: Mast/stem cell growth factor receptor Kit (Homo sapiens) (UniProt P10721)
Sequence (P10721 whole entry): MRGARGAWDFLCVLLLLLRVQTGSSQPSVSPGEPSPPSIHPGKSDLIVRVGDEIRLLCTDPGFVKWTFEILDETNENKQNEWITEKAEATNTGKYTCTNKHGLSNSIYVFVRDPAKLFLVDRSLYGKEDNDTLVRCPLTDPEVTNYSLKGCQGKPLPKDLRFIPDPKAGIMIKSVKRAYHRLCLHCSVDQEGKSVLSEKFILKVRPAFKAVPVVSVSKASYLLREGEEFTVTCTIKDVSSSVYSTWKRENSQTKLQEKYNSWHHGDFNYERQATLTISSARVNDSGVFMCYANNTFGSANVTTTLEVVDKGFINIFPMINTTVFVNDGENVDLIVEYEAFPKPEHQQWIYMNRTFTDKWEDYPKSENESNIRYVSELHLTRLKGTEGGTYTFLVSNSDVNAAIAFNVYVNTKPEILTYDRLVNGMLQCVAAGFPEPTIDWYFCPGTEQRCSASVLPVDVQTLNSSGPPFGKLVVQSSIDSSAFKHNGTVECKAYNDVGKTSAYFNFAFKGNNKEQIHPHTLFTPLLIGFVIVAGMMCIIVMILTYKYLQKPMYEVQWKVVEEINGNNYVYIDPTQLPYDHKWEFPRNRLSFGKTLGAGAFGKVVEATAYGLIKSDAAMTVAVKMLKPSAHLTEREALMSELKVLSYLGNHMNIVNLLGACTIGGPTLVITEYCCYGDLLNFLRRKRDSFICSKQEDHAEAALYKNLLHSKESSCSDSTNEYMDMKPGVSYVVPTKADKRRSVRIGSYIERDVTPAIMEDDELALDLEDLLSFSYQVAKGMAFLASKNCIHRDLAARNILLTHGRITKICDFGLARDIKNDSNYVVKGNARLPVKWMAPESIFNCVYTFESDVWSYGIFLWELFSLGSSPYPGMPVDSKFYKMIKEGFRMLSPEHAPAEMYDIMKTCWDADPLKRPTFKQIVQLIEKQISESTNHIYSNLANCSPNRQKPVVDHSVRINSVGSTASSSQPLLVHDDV
measurement-setup: at 1 µM
Entries and their inhibition
parameter: inhibition (%)

substance_smiles=COc1cc(Nc2ncc3c(C)nc(-c4cccc(Oc5ccccc5)c4)n3n2)cc(OC)c1OC recorded_measurement=18.8
substance_smiles=O=C(Nc1ccc(Oc2ccc3[nH]c(NC(=O)c4ccccc4)nc3c2)cc1)Nc1cc(C(F)(F)F)ccc1F recorded_measurement=85.1
substance_smiles=COc1ccc2cc(-c3c(-c4ccncc4)nc(-c4ccc(S(C)(=O)=O)cc4C)n3C)ccc2c1 recorded_measurement=4.85
substance_smiles=COc1cc(Nc2ncc(-c3ccccc3)o2)cc(OC)c1OC recorded_measurement=98.7
substance_smiles=COc1cc2ncn(-c3cc(OCCc4ccccc4)c(C(N)=O)s3)c2cc1OC recorded_measurement=5.42

* * *

Tested on: Serine/threonine-protein kinase B-raf (Homo sapiens), P15056 [V600E];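 further: enzyme inhibition of the BRAF V599E mutant kinase, given as mean percent inhibition, screened within the GSK PKIS kinase inhibitor set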
Sequence (P15056 whole entry V600E): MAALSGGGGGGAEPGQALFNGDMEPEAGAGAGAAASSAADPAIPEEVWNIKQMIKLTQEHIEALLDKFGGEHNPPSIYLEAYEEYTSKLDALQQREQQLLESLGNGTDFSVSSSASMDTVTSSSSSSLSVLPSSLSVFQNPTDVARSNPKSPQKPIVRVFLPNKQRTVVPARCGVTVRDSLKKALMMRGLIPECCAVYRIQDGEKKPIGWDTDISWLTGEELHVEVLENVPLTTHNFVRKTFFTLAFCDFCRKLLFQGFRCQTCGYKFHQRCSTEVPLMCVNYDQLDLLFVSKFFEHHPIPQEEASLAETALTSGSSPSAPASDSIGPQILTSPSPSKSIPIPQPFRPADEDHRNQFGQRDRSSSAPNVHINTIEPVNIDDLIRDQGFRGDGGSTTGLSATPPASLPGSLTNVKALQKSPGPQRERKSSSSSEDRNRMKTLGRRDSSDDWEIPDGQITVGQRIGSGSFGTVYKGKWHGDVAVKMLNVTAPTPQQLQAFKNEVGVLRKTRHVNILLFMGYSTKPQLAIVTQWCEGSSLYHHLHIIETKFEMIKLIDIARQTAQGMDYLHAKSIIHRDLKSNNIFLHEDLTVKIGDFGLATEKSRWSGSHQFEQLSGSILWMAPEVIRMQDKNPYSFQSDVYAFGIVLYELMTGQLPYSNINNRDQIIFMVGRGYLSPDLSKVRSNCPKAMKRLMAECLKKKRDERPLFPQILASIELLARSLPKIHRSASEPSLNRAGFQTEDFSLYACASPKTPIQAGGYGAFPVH
measurement-setup: at 1 µM
Description: GSK_PKIS: BRAF (V599E mutant) mean inhibition at 1 uM [Nanosyn]
parameter: inhibition (%)

substance_smiles=CCC(=O)Nc1ccc(C)c(-c2ccc(C(=O)NCC3CC3)cc2)c1 subject_of_test="Serine/threonine-protein kinase B-raf (Homo sapiens), P15056 [V600E]" recorded_measurement=4.63
substance_smiles=Cc1ccc(C(=O)NC(C)C)cc1-c1ccc(C(=O)NCC2CC2)cc1 subject_of_test="Serine/threonine-protein kinase B-raf (Homo sapiens), P15056 [V600E]" recorded_measurement=-2.75
substance_smiles=COc1ccc2ncn(-c3cc(O[C@H](C)c4ccccc4Cl)c(C(N)=O)s3)c2c1 subject_of_test="Serine/threonine-protein kinase B-raf (Homo sapiens), P15056 [V600E]" recorded_measurement=3.29
substance_smiles=Fc1ccc(-c2ncn(C3CCNCC3)c2-c2ccnc(Oc3ccc(Oc4ccccc4)cc3)n2)cc1 subject_of_test="Serine/threonine-protein kinase B-raf (Homo sapiens), P15056 [V600E]" recorded_measurement=8.67
substance_smiles=C/C(Nc1ccc(S(N)(=O)=O)cc1)=C1/C(=O)Nc2ccccc21 subject_of_test="Serine/threonine-protein kinase B-raf (Homo sapiens), P15056 [V600E]" recorded_measurement=-0.68
substance_smiles=Fc1ccc(-c2ncn(C3CCNCC3)c2-c2ccnc(Oc3ccc(F)c(F)c3)n2)cc1 subject_of_test="Serine/threonine-protein kinase B-raf (Homo sapiens), P15056 [V600E]" recorded_measurement=4.06
substance_smiles=NS(=O)(=O)c1ccc(N/N=C2\C(=O)Nc3ccc(-c4cnco4)cc32)cc1 subject_of_test="Serine/threonine-protein kinase B-raf (Homo sapiens), P15056 [V600E]" recorded_measurement=4.4
substance_smiles=CNC(=O)c1cncc(/C=C/c2c(C)cccc2C)c1 subject_of_test="Serine/threonine-protein kinase B-raf (Homo sapiens), P15056 [V600E]" recorded_measurement=2.82
substance_smiles=COc1cc(Nc2ncc(-c3ccccc3)o2)cc(OC)c1OC subject_of_test="Serine/threonine-protein kinase B-raf (Homo sapiens), P15056 [V600E]" recorded_measurement=-1.09
substance_smiles=COc1ccc(C2=C(N3CCc4ccccc43)C(=O)NC2=O)cc1 subject_of_test="Serine/threonine-protein kinase B-raf (Homo sapiens), P15056 [V600E]" recorded_measurement=4.71
substance_smiles=Clc1ccc(CNc2nccc(-c3cnn4ncccc34)n2)cc1 subject_of_test="Serine/threonine-protein kinase B-raf (Homo sapiens), P15056 [V600E]" recorded_measurement=2.83
substance_smiles=C[C@@H](Oc1cc(-n2cnc3ccc(OC4CCN(C)CC4)cc32)sc1C(N)=O)c1ccccc1Cl subject_of_test="Serine/threonine-protein kinase B-raf (Homo sapiens), P15056 [V600E]" recorded_measurement=3.24
substance_smiles=NS(=O)(=O)c1ccc(Nc2cc(-c3ccc(O)c(F)c3)n[nH]2)cc1 subject_of_test="Serine/threonine-protein kinase B-raf (Homo sapiens), P15056 [V600E]" recorded_measurement=-3.52
substance_smiles=CCc1cccc(CC)c1/C=C/c1cncc(C(=O)NC)c1 subject_of_test="Serine/threonine-protein kinase B-raf (Homo sapiens), P15056 [V600E]" recorded_measurement=2.87
substance_smiles=COc1cc(Nc2ncc3c(C)nc(-c4cccc(C(F)(F)F)c4)n3n2)cc(OC)c1OC subject_of_test="Serine/threonine-protein kinase B-raf (Homo sapiens), P15056 [V600E]" recorded_measurement=13.2
substance_smiles=Cc1ccc(C(=O)NC2CCC2)cc1-c1ccc(C(=O)NCC2CC2)cc1 subject_of_test="Serine/threonine-protein kinase B-raf (Homo sapiens), P15056 [V600E]" recorded_measurement=3.62
substance_smiles=N#Cc1ccc(Oc2nccc(-c3c(-c4ccc(F)cc4)ncn3C3CCNCC3)n2)cc1 subject_of_test="Serine/threonine-protein kinase B-raf (Homo sapiens), P15056 [V600E]" recorded_measurement=4.44
substance_smiles=Fc1ccc(-c2ncn(CCCN3CCOCC3)c2-c2ccncc2)cc1 subject_of_test="Serine/threonine-protein kinase B-raf (Homo sapiens), P15056 [V600E]" recorded_measurement=0.78
